Experiment: activity coefficient (dimensionless); of the first substance listed, at infinite dilution; xn = mol fraction of the nth substance listed
Experimental context: 338.15 K; 101.33 kPa; Liquid; Chromatography; x1 = 0
Entries whose activity coefficient is below 3 take yes; entries at or above 3 take no.

C1CCOC1 [tetrahydrofuran] + CC[N+](C)(CC)CCOC.O=S(=O)([N-]S(=O)(=O)C(F)(F)F)C(F)(F)F	yes
O [water] + CC[N+](C)(CC)CCOC.O=S(=O)([N-]S(=O)(=O)C(F)(F)F)C(F)(F)F	yes
C#CCCCC [1-hexyne] + CC[N+](C)(CC)CCOC.O=S(=O)([N-]S(=O)(=O)C(F)(F)F)C(F)(F)F	no
C1=CCCCC1 [cyclohexene] + CC[N+](C)(CC)CCOC.O=S(=O)([N-]S(=O)(=O)C(F)(F)F)C(F)(F)F	no
C=Cc1ccccc1 [styrene] + CC[N+](C)(CC)CCOC.O=S(=O)([N-]S(=O)(=O)C(F)(F)F)C(F)(F)F	yes
C#CCCCCC [1-heptyne] + CC[N+](C)(CC)CCOC.O=S(=O)([N-]S(=O)(=O)C(F)(F)F)C(F)(F)F	no
C=CCCCCCCCC [1-decene] + CC[N+](C)(CC)CCOC.O=S(=O)([N-]S(=O)(=O)C(F)(F)F)C(F)(F)F	no
CCCCO [butan-1-ol] + CC[N+](C)(CC)CCOC.O=S(=O)([N-]S(=O)(=O)C(F)(F)F)C(F)(F)F	yes
c1ccncc1 [pyridine] + CC[N+](C)(CC)CCOC.O=S(=O)([N-]S(=O)(=O)C(F)(F)F)C(F)(F)F	yes
CC#N [acetonitrile] + CC[N+](C)(CC)CCOC.O=S(=O)([N-]S(=O)(=O)C(F)(F)F)C(F)(F)F	yes

# check: activity coefficient < 3 for CCCC(=O)CC [3-hexanone] + CC[N+](C)(CC)CCOC.O=S(=O)([N-]S(=O)(=O)C(F)(F)F)C(F)(F)F
yes

Okay, and C#CCCC [1-pentyne] + CC[N+](C)(CC)CCOC.O=S(=O)([N-]S(=O)(=O)C(F)(F)F)C(F)(F)F ?
yes

Okay, and C1CCCC1 [cyclopentane] + CC[N+](C)(CC)CCOC.O=S(=O)([N-]S(=O)(=O)C(F)(F)F)C(F)(F)F ?
no

Okay, and CCC(=O)CC [pentan-3-one] + CC[N+](C)(CC)CCOC.O=S(=O)([N-]S(=O)(=O)C(F)(F)F)C(F)(F)F ?
yes

Okay, and C1CCCCCCC1 [cyclooctane] + CC[N+](C)(CC)CCOC.O=S(=O)([N-]S(=O)(=O)C(F)(F)F)C(F)(F)F ?
no

Every entry's value here was drawn from the NIST ThermoML archive (doi:10.1016/j.jct.2016.07.017).
